- TARGET_OR_SYSTEM: Matrix metalloproteinase-9 (Homo sapiens, UniProt P14780)
- Sequence (P14780 whole entry): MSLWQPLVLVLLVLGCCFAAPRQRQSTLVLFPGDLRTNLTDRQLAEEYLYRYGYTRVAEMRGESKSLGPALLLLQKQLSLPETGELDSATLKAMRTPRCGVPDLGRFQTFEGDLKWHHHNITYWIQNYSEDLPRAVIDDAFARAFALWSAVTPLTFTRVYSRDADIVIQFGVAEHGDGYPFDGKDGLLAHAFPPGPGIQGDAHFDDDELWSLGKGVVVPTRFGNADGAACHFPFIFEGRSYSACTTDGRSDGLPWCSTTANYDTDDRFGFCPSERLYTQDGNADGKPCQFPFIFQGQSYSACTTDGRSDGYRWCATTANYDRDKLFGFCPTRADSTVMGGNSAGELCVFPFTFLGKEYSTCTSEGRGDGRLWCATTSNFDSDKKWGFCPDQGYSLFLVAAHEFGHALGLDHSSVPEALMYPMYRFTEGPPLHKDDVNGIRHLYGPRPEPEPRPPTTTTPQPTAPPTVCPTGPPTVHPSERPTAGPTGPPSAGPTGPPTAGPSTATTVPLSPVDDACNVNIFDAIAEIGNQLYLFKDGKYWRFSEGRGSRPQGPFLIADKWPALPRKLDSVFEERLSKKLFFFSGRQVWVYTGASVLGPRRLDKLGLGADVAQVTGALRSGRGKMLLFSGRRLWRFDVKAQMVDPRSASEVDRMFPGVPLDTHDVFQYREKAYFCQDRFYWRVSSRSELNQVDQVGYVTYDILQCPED

SMILES: O=C(NO)[C@@H](Cc1ccc2ccccc2c1)NS(=O)(=O)c1ccc2ccccc2c1
TARGET_OR_SYSTEM: Matrix metalloproteinase-9 (Homo sapiens, UniProt P14780)
IC50: 97.2 nM

----------
- TARGET_OR_SYSTEM: UDP-3-O-acyl-N-acetylglucosamine deacetylase (Pseudomonas aeruginosa (strain ATCC 15692 / PAO1 / 1C / PRS 101 / LMG12228), UniProt P47205)
- Sequence (P47205 whole entry): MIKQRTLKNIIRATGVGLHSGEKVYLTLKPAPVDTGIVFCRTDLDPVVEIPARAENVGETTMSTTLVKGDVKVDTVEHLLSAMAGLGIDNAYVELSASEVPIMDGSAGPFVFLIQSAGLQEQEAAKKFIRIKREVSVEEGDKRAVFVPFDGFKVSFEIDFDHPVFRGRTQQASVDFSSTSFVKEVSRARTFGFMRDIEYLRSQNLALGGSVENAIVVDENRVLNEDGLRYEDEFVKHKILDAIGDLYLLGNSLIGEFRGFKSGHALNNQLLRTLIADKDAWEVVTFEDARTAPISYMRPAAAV
- ASSAY_METHOD_TEXT: Inhibition of histidine-tagged Pseudomonas aeruginosa LpxC (1-303) expressed in Escherichia coli BL21 (DE3) using UDP-3-O-(R-3-hydroxydecanoyl)-N-acetylglucosamine as substrate measured after 60 mins by Fluorescence plate reader analysis
pIC50: −log10 of the molar value.
Reported pIC50 by item:

COMPOUND: OC(COc1ccccc1)Cn1ccnc1 (racemic)
pIC50: 2.95
//
COMPOUND: Clc1ccc(OCCCn2ccnc2)cc1
pIC50: 3.84
//
COMPOUND: C[C@@H](O)c1nccn1Cc1cc(C#Cc2ccc(CCCO)cc2)on1
pIC50: 5.85
//
COMPOUND: CC(O)c1nccn1CCCc1ccc(C#Cc2ccccc2)cc1 (racemic)
pIC50: 6.79
//
COMPOUND: C[C@H](O)c1nccn1Cc1cc(C#Cc2ccc(OCCCNCCN)cc2)on1
pIC50: 8.15
//
COMPOUND: CC(O)c1nccn1Cc1ccc(C#Cc2ccccc2)cc1 (racemic)
pIC50: 6.25
//
COMPOUND: Clc1ccc(CCCCn2ccnc2)cc1
pIC50: 4.22
//
COMPOUND: CC(O)c1nccn1CCc1ccc(-c2ccccc2)cc1 (racemic)
pIC50: 4.98
//
COMPOUND: C[C@H](O)c1nccn1Cc1cc(C#Cc2ccc(CCCO)cc2)on1
pIC50: 8.39
//
COMPOUND: CC(O)c1nccn1Cc1cc(C#Cc2ccc(CCCO)cc2)on1 (racemic)
pIC50: 8.05
//
COMPOUND: CC(O)c1nccn1Cc1cc(C#Cc2ccccc2)on1 (racemic)
pIC50: 7.32
//
COMPOUND: Clc1ccc(CCCn2ccnc2)cc1
pIC50: 3.95
//
COMPOUND: CC(O)c1nccn1CCCc1ccc(-c2ccccc2)cc1 (racemic)
pIC50: 6.88
//
COMPOUND: CC(O)c1nccn1CCc1ccc(Cl)cc1 (racemic)
pIC50: 3.58
//
COMPOUND: CC(O)c1nccn1CCc1ccc(C#Cc2ccccc2)cc1 (racemic)
pIC50: 5.62
//
COMPOUND: OCc1nccn1CCCc1ccc(Cl)cc1
pIC50: 3.97
//
COMPOUND: C[C@H](O)c1nccn1Cc1cc(C#Cc2ccc(OCC(N)(CO)CO)cc2)on1
pIC50: 7.70
//
COMPOUND: CC(O)c1nccn1Cc1ccc(Cl)cc1 (racemic)
pIC50: 3.67
//
COMPOUND: CC(O)c1nccn1Cc1ccc(-c2ccccc2)cc1 (racemic)
pIC50: 5.40
//
COMPOUND: C[C@H](O)c1nccn1Cc1cc(C#Cc2ccc(OC3CN(CCO)C3)cc2)on1
pIC50: 8.35
//
COMPOUND: CC(O)c1nccn1Cc1cc(-c2ccccc2)on1 (racemic)
pIC50: 6.05
//
COMPOUND: C[C@H](O)c1nccn1Cc1cc(C#Cc2ccc(OCCCNC3COC3)cc2)on1
pIC50: 8.33
//
COMPOUND: OC(COc1ccc(Cl)cc1)Cn1ccnc1 (racemic)
pIC50: 3.33
//
COMPOUND: CC(O)c1nccn1CCCc1ccc(Cl)cc1 (racemic)
pIC50: 4.98

The reported numbers originate from ChEMBL document CHEMBL4673300.
